Could you please report measured PBM binding z-score for the items listed next?
- Tested on: THRa:RXRa (NR concentration 90 nM, RXRa partner concentration 90 nM)
- Assay Name: PBM binding z-score (relative to random genomic background probes); higher = stronger binding; sequences stand for … in GC…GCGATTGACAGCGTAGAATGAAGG
The response must contain the number and no unit.

IN: Notebook entry, THRa:RXRa (NR concentration 90 nM, RXRa partner concentration 90 nM) assay: PBM binding z-score of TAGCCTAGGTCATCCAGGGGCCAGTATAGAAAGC = ?
OUT: 3.55

IN: Try this sequence too: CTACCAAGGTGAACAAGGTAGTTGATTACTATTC
OUT: 1.75

IN: Would you mind doing TCTTGTAGATCAAGCAGGTCAAGAAAGCCTGAGT as well?
OUT: 2.01

IN: Lookup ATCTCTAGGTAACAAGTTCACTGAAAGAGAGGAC
OUT: 2.12

IN: Please answer likewise for CCAGACAGGTGAAAGGTAACTCAGTCTGGTACGC
OUT: 0.824

IN: Cool, now TTACCAAGGTGAAGGTCGTTTATCCCTCTGTAGA
OUT: 2.5

IN: Now the same for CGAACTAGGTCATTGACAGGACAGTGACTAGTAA
OUT: 2.84

IN: Param item: CGTCCAAGGTCATAGGAGGTGAGTGAAGACAGAT
OUT: 5.3

IN: How about this sequence: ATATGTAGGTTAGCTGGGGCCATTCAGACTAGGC
OUT: 4.13

IN: What would you report for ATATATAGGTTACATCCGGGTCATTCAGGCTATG ?
OUT: 4.03

IN: Check TCATATAGGTAAATGCTAGGGGAAAGTCCGATCT too.
OUT: 0.401

IN: Please do the same for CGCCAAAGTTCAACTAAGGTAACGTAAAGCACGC as well.
OUT: 5.24

IN: Input TCGAGTAGGTTATTCGGGGCATTCAGCCAACATA
OUT: 2.61

IN: Entry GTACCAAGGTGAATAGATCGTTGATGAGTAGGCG please
OUT: 1.03

IN: Try this sequence too: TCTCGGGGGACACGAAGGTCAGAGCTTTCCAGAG
OUT: 3.32

IN: Item: CTCAAAAGGTCGGTTGAGGTGAGTATACGGATAA
OUT: 5.22

IN: Cool, now TCTTGTAGATCAATAGAGGTTATGAAAGTGCGCT
OUT: 2.33

IN: Lookup ATTGAAAGGTCGAAGGTGAGTATACCCACCCGAA
OUT: 2.22

IN: Entry to check: CCAGTCAGGTGAGAAGGTAACTCAGCCTCGATTA
OUT: 1.11

IN: Repeat for the following sequence: TAGCCTAAGTCAGATCGGGCCAGTATACGCTATA
OUT: 1.43

IN: Param item: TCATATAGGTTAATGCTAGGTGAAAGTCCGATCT
OUT: 2.53

IN: And GCGACTGGGGCATAGCAGGTTACCATAAGGTTGG ?
OUT: 2.44

IN: Note, next up: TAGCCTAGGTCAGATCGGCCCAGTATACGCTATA
OUT: 1.98

IN: Request: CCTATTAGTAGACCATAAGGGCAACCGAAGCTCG
OUT: 1.57

IN: What do we get for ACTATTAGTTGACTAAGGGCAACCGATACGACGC ?
OUT: 1.72

IN: Note, next up: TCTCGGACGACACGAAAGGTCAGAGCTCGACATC
OUT: 2.77

IN: Again, but for AGTCAAAGATCAGGACGAGGTAACGTAAAGCACG
OUT: 2.27

IN: And what about the sequence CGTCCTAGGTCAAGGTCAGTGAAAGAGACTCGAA ?
OUT: 3.82

IN: One more sequence: ATCTCTAGGTAAAAGTTGAGTGAATCCCGAGGAT
OUT: 0.387

IN: Consider next the sequence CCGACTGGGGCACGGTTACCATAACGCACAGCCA in the same way.
OUT: -0.214

IN: Now consider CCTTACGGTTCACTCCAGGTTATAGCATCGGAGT and answer again.
OUT: 4.66

IN: Thanks! And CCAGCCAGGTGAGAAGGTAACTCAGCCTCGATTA ?
OUT: 0.621

IN: What about this sequence? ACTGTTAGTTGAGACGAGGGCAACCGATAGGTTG
OUT: 2.63

IN: Could you do the same for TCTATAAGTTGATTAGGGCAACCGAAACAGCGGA , please?
OUT: 1.11

IN: Queued: TCTTGTTGATCAAGCAGGTTAAGAAAGCCTGAGT
OUT: 0.444

IN: Try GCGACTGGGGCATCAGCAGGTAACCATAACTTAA next.
OUT: 0.856

IN: Also, CGTCAAAGTTCAACTAAGGTAAAGTAAAGCACGC please.
OUT: 5.01

IN: # repeat for GCTTGTAGATCAAGGTAAAGAAAGACTAAGCTAA
OUT: 0.48

IN: Again, but for GGAACGAGGGCATTCGAGTTGATTGCATGGCGAT
OUT: 3.52

IN: Thanks! And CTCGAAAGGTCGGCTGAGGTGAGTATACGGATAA ?
OUT: 5.13

IN: Lookup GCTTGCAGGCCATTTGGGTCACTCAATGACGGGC
OUT: 2.07

IN: Same for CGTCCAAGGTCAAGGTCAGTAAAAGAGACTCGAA
OUT: 4

IN: Another sequence: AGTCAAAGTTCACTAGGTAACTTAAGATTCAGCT
OUT: 2.03

IN: Continue with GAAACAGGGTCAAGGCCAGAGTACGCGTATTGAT
OUT: 3.85

IN: Okay, and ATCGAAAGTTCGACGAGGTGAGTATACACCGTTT ?
OUT: 2.5

IN: Please do the same for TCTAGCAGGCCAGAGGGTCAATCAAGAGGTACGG as well.
OUT: 1.62

IN: Okay, and TCTTGTAGATCAATAGAGGTTAGGAAAGTGCGCT ?
OUT: 2

IN: Can you handle CCTAATTGGTCAAGGTCACACACGCTATAGGTAC next?
OUT: 4.34

IN: Now consider TCTAGTTGGTCTCGGAGGTCACACACGACGGGTA and answer again.
OUT: 3.65

IN: Now give it for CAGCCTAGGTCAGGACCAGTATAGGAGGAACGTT too.
OUT: 1.94

IN: Try the sequence TCTGCTAAGTCAACGATGGTCAGCTAATCTGCTA
OUT: -0.52

Reference source: the supplement of paper PMC6555819
